- Test system: H1299 (lung)
- test.description: In vitro cytotoxic activity (MTT) assay, H1299
- Format: cell-based
- conditions.used: Homo sapiens, NCI-H1299; H1299 (lung) cells, exposed 96 hours; read-out: IC50, concentration eliciting 50% inhibition of cell proliferation
- From the text: Compounds 1-16 were screened for their in vitro cytotoxic activity utilizing a 3-(4,5-dimethyl-thiazol-2-yl)-2,5-diphenyltetrazolium bromide (MTT) assay against selected cancer human cell lines consisting of PC3 (prostate), HCT116 (colon), A375 (melanoma), H1299 (lung), MIAPaCa-2 (pancreas), HL60 (leukemia), MCF7 (breast), MDA-MB-231 (breast) (T. Mosmann, J. Immunol. Meth., 1983, 65, 55-63). […]

| cpd.smiles | u | IC50 |
| --- | --- | --- |
| O=C(O)c1cc2c([nH]1)c(Nc1cccc(Cl)c1)nc1cnccc12 | nM | 1400 |

* * *

- Test system: A375 (melanoma)
- test.description: In vitro cytotoxic activity (MTT) assay, A375
- Format: cell-based
- conditions.used: Homo sapiens, A-375; A375 (melanoma) cells, exposed 96 hours; read-out: IC50, concentration eliciting 50% inhibition of cell proliferation
- Description: Compounds 1-16 were screened for their in vitro cytotoxic activity utilizing a 3-(4,5-dimethyl-thiazol-2-yl)-2,5-diphenyltetrazolium bromide (MTT) assay against selected cancer human cell lines consisting of PC3 (prostate), HCT116 (colon), A375 (melanoma), H1299 (lung), MIAPaCa-2 (pancreas), HL60 (leukemia), MCF7 (breast), MDA-MB-231 (breast) (T. Mosmann, J. Immunol. Meth., 1983, 65, 55-63). […]

| compound | IC50, µM |
| --- | --- |
| O=C(O)c1cc2c([nH]1)c(Nc1cccc(Cl)c1)nc1cnccc12 [Compound 1] | 2.3 |

* * *

- System: HL60 (leukemia)
- test.description: In vitro cytotoxic activity (MTT) assay, HL60
- Type: cell-based
- conditions.used: Homo sapiens, HL-60; HL60 (leukemia) cells, exposed 96 hours; read-out: IC50, concentration eliciting 50% inhibition of cell proliferation
pIC50: −log10 of the molar value.

| cpd.smiles | pIC50 |
| --- | --- |
| O=C(O)c1cc2c([nH]1)c(Nc1cccc(Cl)c1)nc1cnccc12 | 5.51 |

* * *

- tgt: recombinant human CK2 (RRββ-holoenzyme) (Homo sapiens)
- Sequence (P68400 whole entry): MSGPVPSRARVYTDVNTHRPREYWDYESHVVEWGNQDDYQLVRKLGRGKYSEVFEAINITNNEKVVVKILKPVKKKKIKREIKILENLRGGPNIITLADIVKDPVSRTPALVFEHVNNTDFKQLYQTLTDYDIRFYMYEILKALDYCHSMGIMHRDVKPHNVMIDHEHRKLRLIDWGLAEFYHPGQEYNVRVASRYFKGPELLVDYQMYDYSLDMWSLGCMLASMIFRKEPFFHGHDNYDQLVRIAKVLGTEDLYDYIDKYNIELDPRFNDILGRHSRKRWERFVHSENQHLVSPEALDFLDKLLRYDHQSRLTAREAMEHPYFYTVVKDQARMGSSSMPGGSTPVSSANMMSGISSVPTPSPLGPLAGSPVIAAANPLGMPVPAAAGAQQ
- Sequence (P67870 whole entry partner): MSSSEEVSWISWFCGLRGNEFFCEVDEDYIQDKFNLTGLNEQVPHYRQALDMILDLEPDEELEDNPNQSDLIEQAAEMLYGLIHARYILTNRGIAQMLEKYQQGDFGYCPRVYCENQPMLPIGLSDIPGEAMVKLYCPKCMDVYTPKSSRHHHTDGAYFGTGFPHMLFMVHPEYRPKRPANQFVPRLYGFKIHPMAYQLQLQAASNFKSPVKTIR
- test.description: CK2 Kinase Assay (33P-ATP, substrate peptide RRRDDDSDDD)
- conditions.used: final ATP concentration 15 μM, 10 min at 30° C.; read-out: protein kinase CK2 IC50

| cpd.smiles | IC50 [nM] |
| --- | --- |
| O=C(O)c1cc2c([nH]1)c(Nc1cccc(Cl)c1)nc1cnccc12 | 26 |

// provenance: patent US11858935B1
